Cited source: paper PMC10341573

Listing of recorded IC50 by entry.
# system_tested: HDAC6 (Homo sapiens)
# Construct: Full-length recombinant HDAC6 was purchased from BPS Bioscience
# Sequence (Q9UBN7 whole entry): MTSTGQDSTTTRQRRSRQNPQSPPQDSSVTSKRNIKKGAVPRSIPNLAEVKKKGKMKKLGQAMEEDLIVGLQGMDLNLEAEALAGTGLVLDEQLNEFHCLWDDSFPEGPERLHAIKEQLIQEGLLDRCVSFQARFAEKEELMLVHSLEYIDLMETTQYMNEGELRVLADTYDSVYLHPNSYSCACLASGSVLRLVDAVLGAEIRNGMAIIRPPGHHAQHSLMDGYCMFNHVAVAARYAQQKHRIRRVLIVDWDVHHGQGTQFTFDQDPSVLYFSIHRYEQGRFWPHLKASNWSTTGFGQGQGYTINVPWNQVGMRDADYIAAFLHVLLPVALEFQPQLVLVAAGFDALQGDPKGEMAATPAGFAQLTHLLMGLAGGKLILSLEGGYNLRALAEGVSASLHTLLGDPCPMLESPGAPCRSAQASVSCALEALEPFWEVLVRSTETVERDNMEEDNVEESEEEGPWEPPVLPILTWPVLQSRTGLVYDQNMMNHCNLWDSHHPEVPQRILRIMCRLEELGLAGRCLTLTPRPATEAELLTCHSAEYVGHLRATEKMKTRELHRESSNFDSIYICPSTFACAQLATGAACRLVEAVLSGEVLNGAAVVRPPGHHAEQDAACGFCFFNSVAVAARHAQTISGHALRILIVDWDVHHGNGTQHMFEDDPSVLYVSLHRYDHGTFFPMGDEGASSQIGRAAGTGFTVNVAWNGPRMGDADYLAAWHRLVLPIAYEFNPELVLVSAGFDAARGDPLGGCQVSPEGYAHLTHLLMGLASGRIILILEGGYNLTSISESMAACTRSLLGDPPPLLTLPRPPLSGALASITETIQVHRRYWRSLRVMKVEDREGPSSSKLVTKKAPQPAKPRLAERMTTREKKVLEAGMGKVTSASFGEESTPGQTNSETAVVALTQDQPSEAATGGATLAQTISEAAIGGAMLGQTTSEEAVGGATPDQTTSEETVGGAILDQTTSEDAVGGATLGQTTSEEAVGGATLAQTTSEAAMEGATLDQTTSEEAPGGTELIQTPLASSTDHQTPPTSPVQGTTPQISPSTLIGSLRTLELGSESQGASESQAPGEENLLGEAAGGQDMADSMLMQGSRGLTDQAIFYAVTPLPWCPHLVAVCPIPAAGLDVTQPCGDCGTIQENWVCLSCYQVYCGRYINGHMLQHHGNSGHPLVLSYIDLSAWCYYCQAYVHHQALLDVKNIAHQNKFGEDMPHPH
# experiment_summary: HDAC enzyme activity assay (fluorogenic, Boc-Lys(acetyl)-AMC), HDAC6
# applied_conditions: class IIb HDAC6; mean ± SD, triplicate
Provide only the numeric value, understood in nM.

Please review the entries below; each comes with its answer.
>>> df
                                   molecule  value_measured
0  O=C(NO)c1ccc(CSc2nc3cc(Cl)ccc3c(=O)n2-c2ccc(Cl)cc2)cc1             320
1  Cc1ccccc1-n1c(SCc2ccc(C(=O)NO)cc2)nc2cc(Cl)ccc2c1=O             410
2  O=C(NO)c1ccc(CSc2nc3cc(Cl)ccc3c(=O)n2-c2ccccc2)cc1             650
3  Cc1cccc(-n2c(SCc3ccc(C(=O)NO)cc3)nc3ccccc3c2=O)c1             260
4  Cc1ccc(-n2c(SCc3ccc(C(=O)NO)cc3)nc3ccccc3c2=O)cc1C             490
5  Cc1cccc2nc(SCc3ccc(C(=O)NO)cc3)n(-c3ccc(Cl)cc3)c(=O)c12             860
6  O=C(NO)c1ccc(CSc2nc3ccccc3c(=O)n2-c2ccc(Br)cc2)cc1            1100
7  Cc1ccc(-n2c(SCc3ccc(C(=O)NO)cc3)nc3cc(Cl)ccc3c2=O)cc1            3900

Here is another compound to look at.
INPUT: Please report IC50 for the following compound: "O=C(NO)c1ccc(CSc2nc3ccccc3c(=O)n2-c2ccccc2F)cc1"
OUTPUT: 360
